Origin of values: patent US20200397913A1

Recorded measurements of Antibody binding to A431 cells: EC50 in presence of Gas6 mean (s.d.), one per entry
system tested: T1, AXL on A431 cells (Homo sapiens, UniProt P30530)
T1 construct: AXL-positive A431 cells were incubated; endogenous in cells; host or cells: A431
test description: Antibody binding to A431 cells with or without Gas6 pre-incubation
condition: pre-incubation with 10 μg/mL Gas6
assay endpoint: Antibody binding to A431 cells: EC50 in presence of Gas6 mean (s.d.)

>  <molecule>
IgG1-AXL-148: human IgG1,κ anti-AXL antibody, VH SEQ ID NO:5, VL SEQ ID NO:6; Ig2 domain binding (antibody, V domains shown, homo sapiens) VH: EVQLLESGGGLVQPGGSLRLSCAASGFTFSSYAMTWVRQAPGKGLEWVSAISISGGSTFYADSVKGRFTISRDNSKNTLYLQMNSLRAEDTAVYYCRGYSGYVYDAFDFWGQGTMVTVSS VL: DIQMTQSPSSLSASVGDRVTITCRASQGISNWLAWYQQKPEKAPKSLIYAASSLQSGVPSRFSGSGSGTDFTLTISSLQPEDFATYYCQQYNSYPLTFGGGTKVEIK

>  <reading>
0.20 (0.30) μg/mL

$$$$
>  <molecule>
IgG1-AXL-511: human IgG1,κ anti-AXL antibody, VH SEQ ID NO:136, VL SEQ ID NO:140; Ig2 domain binding (antibody, V domains shown, homo sapiens) VH: EVQLLESGGGLVQPGGSLRLSCAASGFTFSSYAMNWVRQAPGKGLEWVSGISGSGGHTYHADSVKGRFTISRDNSKNTLYLQMNSLRAEDTAVYYCAKDRYDILTGYYNLLDYWGQGTLVTVSS VL: DIQMTQSPSSLSASVGDRVTITCRASQGISSWLAWYQQKPEEAPKSLIYAASSLQSGVPSRFSGSGSGTDFTLTISSLQPEDFATYYCQQYNSYPLTFGGGAKVEIK

>  <reading>
0.30 (0.31) μg/mL

$$$$
